What follows is a collection of pIC50 values obtained with mTOR (Homo sapiens).
pIC50: −log10 of the molar value.

Some entries whose results are on file:
[
  {
    "COMPOUND_STRING": "Cc1cc(-c2nnc[nH]2)ccc1-c1cnc2c(n1)N(Cc1ccccc1)C(=O)CN2",
    "TESTED_ON": "mTOR (Homo sapiens)",
    "QUANTITY_KIND": "pIC50",
    "TEST_RESULT": "6.60 to 11.30"
  },
  {
    "COMPOUND_STRING": "COCCCN1CC(=O)Nc2ncc(-c3ccc(C(C)(C)O)nc3)nc21",
    "TESTED_ON": "mTOR (Homo sapiens)",
    "QUANTITY_KIND": "pIC50",
    "TEST_RESULT": "5.00 to 6.00"
  }
]

Give pIC50 for each listed item.
1. Cc1cc(-c2cnc3c(n2)N(CCC2CCOCC2)CC(=O)N3)cc2[nH]cnc12
2. CO[C@H]1CC[C@@H](CN2CC(=O)Nc3ncc(-c4ccc(C(C)(C)O)nc4)nc32)C1

Reply:
1: 6.00 to 6.30; 2: 6.60 to 11.30

* * *

target: mTOR (Homo sapiens); construct: purchased Invitrogen PR8683A; assay: mTOR HTR-FRET assay; type: biochemical; conditions: read-out: Act. Level (IC50 in mTor HTR-FRET assay)
QUANTITY_KIND: IC50

Give IC50 for each listed item.
1. CO[C@H]1C[C@H]2C(=O)Nc3ncc(-c4ccc(-c5nnc[nH]5)cc4C)nc3N2C1
2. COCCN1CC(=O)Nc2ncc(-c3cnc(-c4nc[nH]n4)cc3C)nc21
3. Cc1cc(-c2nnc[nH]2)ccc1-c1cnc2c(n1)NC1(CCCC1)C(=O)N2
4. CO[C@H]1CC[C@H](CN2CC(=O)Nc3ncc(-c4ccc(C(C)(C)O)cc4)nc32)CC1
5. CO[C@H]1CC[C@@H](CN2C(=O)CNc3ncc(-c4cnc(C(N)=O)cc4C)nc32)CC1
6. CC(C)(O)c1ccc(-c2cnc3c(n2)N(C[C@H]2CCCO2)CC(=O)N3)cn1
7. Cc1nc(-c2nnc[nH]2)ccc1-c1cnc2c(n1)N(CC1CCOCC1)C(C)(C)C(=O)N2

Reply:
["250 to 500 nM", "0.005 to 250 nM", "250 to 500 nM", "250 to 500 nM", "1000 to 10000 nM", "500 to 1000 nM", "0.005 to 250 nM"]

* * *

target: mTOR (Homo sapiens, UniProt P42345); construct: purchased Invitrogen PR8683A; assay: mTOR HTR-FRET assay; format: biochemical; conditions: read-out: Act. Level (IC50 in mTor HTR-FRET assay)
Sequence (P42345 1360-2549 limits assumed): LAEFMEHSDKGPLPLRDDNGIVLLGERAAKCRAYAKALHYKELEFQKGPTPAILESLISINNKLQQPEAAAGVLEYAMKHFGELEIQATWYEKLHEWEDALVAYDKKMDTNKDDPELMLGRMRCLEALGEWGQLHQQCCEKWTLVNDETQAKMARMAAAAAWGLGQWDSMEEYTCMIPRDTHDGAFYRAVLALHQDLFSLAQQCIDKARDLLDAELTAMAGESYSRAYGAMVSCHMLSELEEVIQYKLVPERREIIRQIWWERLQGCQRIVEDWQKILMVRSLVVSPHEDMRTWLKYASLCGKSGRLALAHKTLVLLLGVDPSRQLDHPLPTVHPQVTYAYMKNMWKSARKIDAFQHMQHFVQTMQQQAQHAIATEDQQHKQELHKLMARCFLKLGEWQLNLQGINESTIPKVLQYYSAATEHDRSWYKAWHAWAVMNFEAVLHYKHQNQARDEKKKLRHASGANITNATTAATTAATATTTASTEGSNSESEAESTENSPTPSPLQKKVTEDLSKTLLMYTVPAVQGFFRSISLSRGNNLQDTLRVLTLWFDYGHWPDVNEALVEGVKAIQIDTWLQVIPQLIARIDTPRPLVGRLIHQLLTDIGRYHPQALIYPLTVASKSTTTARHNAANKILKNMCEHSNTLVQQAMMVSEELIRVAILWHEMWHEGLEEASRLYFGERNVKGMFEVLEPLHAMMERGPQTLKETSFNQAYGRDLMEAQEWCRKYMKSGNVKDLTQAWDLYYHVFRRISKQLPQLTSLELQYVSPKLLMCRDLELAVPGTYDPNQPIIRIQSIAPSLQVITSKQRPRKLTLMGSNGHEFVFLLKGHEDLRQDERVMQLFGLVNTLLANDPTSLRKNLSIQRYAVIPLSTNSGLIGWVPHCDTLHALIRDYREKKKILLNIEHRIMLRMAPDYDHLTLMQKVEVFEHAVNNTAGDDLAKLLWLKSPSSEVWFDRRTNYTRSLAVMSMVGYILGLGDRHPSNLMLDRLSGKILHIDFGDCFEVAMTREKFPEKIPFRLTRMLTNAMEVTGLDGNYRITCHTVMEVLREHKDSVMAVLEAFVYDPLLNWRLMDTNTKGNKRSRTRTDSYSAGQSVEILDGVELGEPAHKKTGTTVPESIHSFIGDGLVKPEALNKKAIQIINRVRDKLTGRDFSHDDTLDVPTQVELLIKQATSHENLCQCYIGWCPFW
QUANTITY_KIND: IC50

Some entries whose results are on file:
[
  {
    "COMPOUND": "CO[C@H]1CC[C@H](CN2C(=O)CNc3ncc(-c4cc(F)c(-c5nc[nH]n5)cc4C)nc32)CC1",
    "TEST_RESULT": "0.005 to 250 nM"
  },
  {
    "COMPOUND": "O=C1CNc2ncc(-c3ccc(-c4nc[nH]n4)nc3)nc2N1[C@H]1CC[C@H](O)CC1",
    "TEST_RESULT": "0.005 to 250 nM"
  },
  {
    "COMPOUND": "NC(=O)c1ccc(-c2cnc3c(n2)N(CCC2CCOCC2)CC(=O)N3)cc1",
    "TEST_RESULT": "1000 to 10000 nM"
  },
  {
    "COMPOUND": "O=C1Nc2ncc(-c3ccc(-c4nnc[nH]4)cc3)nc2N2CCOCC12 (centres unmarked)",
    "TEST_RESULT": "0.005 to 250 nM"
  },
  {
    "COMPOUND": "O=C1CNc2ncc(-c3cccc4[nH]ccc34)nc2N1CCC1CCOCC1",
    "TEST_RESULT": "250 to 500 nM"
  }
]

Give IC50 for each listed item.
1. C[C@@H](O)c1ccc(-c2cnc3c(n2)N(CCC2CCOCC2)C(=O)CN3)cn1
2. COCCN1C(=O)CNc2ncc(-c3ccc(-c4nnc[nH]4)c(F)c3)nc21
3. CC(C)(O)c1ccc(-c2cnc3c(n2)N(CC2CCOCC2)CC(=O)N3)cc1

Reply:
0.005 to 250 nM
0.005 to 250 nM
0.005 to 250 nM

* * *

Hi there, I'd appreciate the recorded pIC50 for every entry that follows.
target: mTOR (Homo sapiens, UniProt P42345)
pIC50: −log10 of the molar value.

Give pIC50 for each listed item.
1. CO[C@@H]1CC[C@@H](N2CC(=O)Nc3ncc(-c4ccc(-c5nnc[nH]5)nc4C)nc32)C1
2. O=C1CN(CC2CCOCC2)c2nc(-c3ccc(-c4nnc[nH]4)cc3)cnc2N1
3. CC(C)(O)c1ccc(-c2cnc3c(n2)N(Cc2ccc(C(F)(F)F)cc2)C(=O)CN3)cn1

Reply:
["6.60 to 11.30", "6.60 to 11.30", "6.60 to 11.30"]

* * *

What follows is a collection of IC50 values obtained with mTOR (Homo sapiens, UniProt P42345).

Some entries whose results are on file:
[
  {
    "MOLECULE": "CC(C)(O)c1ccc(-c2cnc3c(n2)N(CC2CCOC2)CC(=O)N3)cn1 (stereo not drawn)",
    "QUANTITY_KIND": "IC50",
    "TEST_RESULT": "500 to 1000 nM"
  },
  {
    "MOLECULE": "CC(C)(O)c1ccc(-c2cnc3c(n2)N(CCN2CCOCC2)C(=O)CN3)cn1",
    "QUANTITY_KIND": "IC50",
    "TEST_RESULT": "0.005 to 250 nM"
  },
  {
    "MOLECULE": "Cc1cc(-c2nc[nH]n2)c(F)cc1-c1cnc2c(n1)N(C[C@H]1CC[C@H](O)CC1)C(=O)CN2",
    "QUANTITY_KIND": "IC50",
    "TEST_RESULT": "0.005 to 250 nM"
  }
]

Give IC50 for each listed item.
1. Cc1cc(-c2nnc[nH]2)ccc1-c1cnc2c(n1)N(CC1CCOCC1)C(C)(C)C(=O)N2
2. COCC(=O)N1CCN2c3nc(-c4ccc(-c5nnc[nH]5)cc4C)cnc3NC(=O)C2C1 (stereo not drawn)
3. O=C1CNc2ncc(-c3ccnc4[nH]ccc34)nc2N1CCC1CCOCC1

Reply:
0.005 to 250 nM
0.005 to 250 nM
0.005 to 250 nM

* * *

What follows is a collection of IC50 values obtained with UniProt P42345.

[
  {
    "COMPOUND": "O=C1CNc2ncc(-c3cnc4[nH]ccc4c3)nc2N1CCC1CCOCC1",
    "TEST_RESULT": "0.005 to 250 nM"
  },
  {
    "COMPOUND": "Cc1cc(-c2nnc[nH]2)ncc1-c1cnc2c(n1)N(CC1CCOCC1)C(C)(C)C(=O)N2",
    "TEST_RESULT": "0.005 to 250 nM"
  },
  {
    "COMPOUND": "CC(C)(O)c1ccc(-c2cnc3c(n2)N(CCC2CCCOC2)CC(=O)N3)cn1 (stereo not drawn)",
    "TEST_RESULT": "0.005 to 250 nM"
  }
]

Give IC50 for each listed item.
1. CO[C@H]1CC[C@@H](N2C(=O)CNc3ncc(-c4ccc(-c5nnc[nH]5)nc4C)nc32)C1
2. Cc1cc(-c2nnc[nH]2)ccc1-c1cnc2c(n1)N(CC1CCOCC1)C1(CCC1)C(=O)N2
3. Cc1cc(C(N)=O)ncc1-c1cnc2c(n1)N(CC1CCOCC1)C(=O)CN2
4. NC(=O)c1cccc(-c2cnc3c(n2)N(CCC2CCOCC2)C(=O)CN3)c1
5. O=C1CNc2ncc(-c3cnc4nc[nH]c4c3)nc2N1CCC1CCOCC1

Reply:
1: 0.005 to 250 nM; 2: 0.005 to 250 nM; 3: 1000 to 10000 nM; 4: 1000 to 10000 nM; 5: 1000 to 10000 nM

Give IC50 for each listed item.
1. Cc1cc(-c2nnc[nH]2)ccc1-c1cnc2c(n1)NC1(CCC1)C(=O)N2
2. Cc1nc(-c2nnc[nH]2)ccc1-c1cnc2c(n1)N(C)C(=O)CN2
3. CCN1C(=O)CNc2ncc(-c3cc(F)c(-c4nc[nH]n4)cc3C)nc21
4. Nc1ncc(-c2cnc3c(n2)N(CCC2CCOCC2)C(=O)CN3)cn1

Reply:
["250 to 500 nM", "0.005 to 250 nM", "0.005 to 250 nM", "250 to 500 nM"]

Give IC50 for each listed item.
1. O=C1CN(CCC2CCOCC2)c2nc(-c3cccc(-c4ncn[nH]4)c3)cnc2N1
2. Cc1cc(-c2nnc[nH]2)ccc1-c1cnc2c(n1)NC1(CC1)C(=O)N2
3. CCN1CC(=O)Nc2ncc(-c3ccc(-c4nnc[nH]4)cc3)nc21
4. CO[C@H]1CC[C@H](N2CC(=O)Nc3ncc(-c4ccc(-c5nnc[nH]5)nc4C)nc32)C1

Reply:
1000 to 10000 nM
0.005 to 250 nM
250 to 500 nM
0.005 to 250 nM

Give IC50 for each listed item.
1. Cc1cc(-c2nc[nH]n2)c(F)cc1-c1cnc2c(n1)N(C1CCOCC1)CC(=O)N2
2. Nc1ccc(-c2cnc3c(n2)N(CCC2CCOCC2)C(=O)CN3)cn1
3. CO[C@@H]1CC[C@@H](N2C(=O)CNc3ncc(-c4ccc(-c5nnc[nH]5)nc4C)nc32)C1

Reply:
["0.005 to 250 nM", "0.005 to 250 nM", "0.005 to 250 nM"]
